# pIC50 per entry
system under test: BRD4 Bromo Domain 1 [BRD4(1)] (Homo sapiens)
Construct: N-terminally His6-tagged BRD4(1) (amino acids 67-152)
method: BRD4(1)/acetylated peptide H4 binding assay (TR-FRET)
measurement parameters: inhibition of interaction between His6-tagged BRD4(1) (amino acids 67-152) and acetylated histone H4 peptide
Formally, pIC50 is defined as -log10 of the concentration c, with c in mol/L.

Worked cases, pIC50 given:
So for "C[C@@H]1C(=O)N(C)c2ccc(Nc3ccc(S(=O)(=O)N(C)C)cc3)cc2N1C1CCOCC1" , the logged pIC50 turned out to be 6.84

So for "C[C@@H]1C(=O)N(C)c2ccc(Nc3ccc(C(=O)NC4CCCC4)cc3)cc2N1C1CCCC1" , the logged pIC50 turned out to be 6.76

Further cases:
So for "C[C@@H]1C(=O)N(C)c2ccc(Nc3ccc(C(=O)N4CCOCC4)cc3)cc2N1C1CCOCC1" , the logged pIC50 turned out to be 6.64

So for C[C@@H]1C(=O)N(C)c2ccc(Nc3ccc(C(=O)NC4CCC(N5CCN(CC6CC6)CC5)CC4)cc3)cc2N1Cc1c(F)cccc1F (stereo in doubt) , the logged pIC50 turned out to be 5.89

So for "C[C@@H]1C(=O)N(C)c2ccc(Nc3ccc(S(=O)(=O)N(C)C)cc3)cc2N1C1CCCC1" , the logged pIC50 turned out to be 7.20

So for "C[C@@H]1C(=O)N(C)c2ccc(Nc3ccc(C(=O)NC4CC4)cc3)cc2N1C1CCCC1" , the logged pIC50 turned out to be 6.84

So for "COc1ccc(CN2c3cc(Nc4ccc(C(=O)N5CC6(COC6)C5)cc4)ccc3N(C)C(=O)[C@H]2C)cc1" , the logged pIC50 turned out to be 6.98

So for "C[C@@H]1C(=O)N(C)c2ccc(Nc3ccc(C(=O)N4CC5(COC5)C4)cc3)cc2N1C1CCOCC1" , the logged pIC50 turned out to be 6.73

So for "C[C@@H]1C(=O)N(C)c2ccc(Nc3ccc(C(=O)NCC4COC4)cc3)cc2N1C1CCOCC1" , the logged pIC50 turned out to be 6.44

* * *

Test system: MOLP-8 cells
method: MOLP-8 cell proliferation assay (alamarBlue)
Type: cell-based
measurement parameters: inhibition of cell proliferation, 120 hours, human multiple myeloma cell line
# IC50 per entry
I only need the number, in nM, no unit after it.

So for "C[C@@H]1C(=O)N(C)c2ccc(Nc3ccc(C(=O)NC4CCN(C)CC4)cc3)cc2N1Cc1ccccc1" , the logged IC50 turned out to be 102

So for "C[C@@H]1C(=O)N(C)c2ccc(Nc3ccc(C(=O)N4CCOCC4)cc3)cc2N1C1CCCCCC1" , the logged IC50 turned out to be 662

Moving on to another compound below.
So for "C[C@@H]1C(=O)N(C)c2ccc(Nc3ccc(S(=O)(=O)N4CCOCC4)cc3)cc2N1Cc1ccccc1" , the logged IC50 turned out to be 98

* * *

Test system: MOLP-8 cells
method: MOLP-8 cell proliferation assay (alamarBlue)
Assay type: cell-based
measurement parameters: inhibition of cell proliferation, 120 hours, human multiple myeloma cell line
value type: log10(IC50) (log10 of the value in nM)
Response schema: value (number) is log10 of IC50 in units of nM.

Worked cases, log10(IC50) given:
So for COc1ccc(CN2c3cc(Nc4ccc(S(=O)(=O)N5CCN(C(C)C)CC5)cc4)ccc3N(C)C(=O)[C@H]2C)cc1 [Example 44] , the logged log10(IC50) turned out to be 2.00

So for C[C@@H]1C(=O)N(C)c2ccc(Nc3ccc(C(=O)N4CCOCC4)cc3)cc2N1C1CCOCC1 [Example 27] , the logged log10(IC50) turned out to be 3.05

So for C[C@@H]1C(=O)N(C)c2ccc(Nc3ccc(S(=O)(=O)N(C)C)cc3)cc2N1Cc1ccccc1 [Example 14] , the logged log10(IC50) turned out to be 2.06

So for COc1ccc(CN2c3cc(Nc4ccc(C(=O)NCCN5CCN(C)CC5)cc4)ccc3N(C)C(=O)[C@H]2C)cc1 [Example 21] , the logged log10(IC50) turned out to be 1.84

So for C[C@@H]1C(=O)N(C)c2ccc(Nc3ccc(C(=O)NC4CCCC4)cc3)cc2N1C1CCCC1 [Example 1] , the logged log10(IC50) turned out to be 3.17

So for CC(C)N1CCN(C(=O)c2ccc(Nc3ccc4c(c3)N(C3CCOCC3)[C@H](C)C(=O)N4C)cc2)CC1 [Example 33] , the logged log10(IC50) turned out to be 2.71

Moving on to another compound below.
So for COc1cc(C(=O)N2CCN(C)CC2)ccc1Nc1ccc2c(c1)N(C1CCOCC1)[C@H](C)C(=O)N2C [Example 38] , the logged log10(IC50) turned out to be 2.88

* * *

system under test: BRD4 Bromo Domain 2 [BRD4(2)] (Homo sapiens, UniProt O60885)
Construct: N-terminally His6-tagged BRD4(2) (amino acids 357-445)
method: BRD4(2)/acetylated peptide H4 binding assay (TR-FRET)
measurement parameters: inhibition of interaction between His6-tagged BRD4(2) (amino acids 357-445) and acetylated histone H4 peptide
# IC50 per entry
# answer = value followed by unit

Worked cases, IC50 given:
So for "C[C@@H]1C(=O)N(C)c2ccc(Nc3ccc(C(=O)N4CC5(COC5)C4)cc3)cc2N1C1CCOCC1" , the logged IC50 turned out to be 158 nM

So for "C[C@@H]1C(=O)N(C)c2ccc(Nc3ccc(C(=O)N4CCOCC4)cc3)cc2N1Cc1ccccc1" , the logged IC50 turned out to be 47 nM

Further cases:
So for "C[C@@H]1C(=O)N(C)c2ccc(Nc3ccc(C(=O)NC4CCCC4)cc3)cc2N1C1CCCC1" , the logged IC50 turned out to be 326 nM

So for "C[C@@H]1C(=O)N(C)c2ccc(Nc3ccc(S(=O)(=O)N(C)C)cc3)cc2N1Cc1ccccc1" , the logged IC50 turned out to be 78 nM

So for "COc1ccc(CN2c3cc(Nc4ccc(C(=O)NCC5COC5)cc4)ccc3N(C)C(=O)[C@H]2C)cc1" , the logged IC50 turned out to be 110 nM

So for "COc1ccc(CN2c3cc(Nc4ccc(S(=O)(=O)N5CCOCC5)cc4)ccc3N(C)C(=O)[C@H]2C)cc1" , the logged IC50 turned out to be 68 nM

So for "COc1ccc(CN2c3cc(Nc4ccc(C(=O)N5CCN(C(C)C)CC5)cc4)ccc3N(C)C(=O)[C@H]2C)cc1" , the logged IC50 turned out to be 86 nM

* * *

System: MOLP-8 cells
method: MOLP-8 cell proliferation assay (alamarBlue)
Format: cell-based
measurement parameters: inhibition of cell proliferation, 120 hours, human multiple myeloma cell line
# strict inequality: IC50 < 500 nM yields 1.0, everything else yields 0.0

## Task Determine if "C[C@@H]1C(=O)N(C)c2ccc(Nc3ccc(C(=O)NC4CCN(C)CC4)cc3)cc2N1C1CCOCC1" shows IC50 strictly lower than 500 nM.
## Result 0.0

## Task Determine if "C[C@@H]1C(=O)N(C)c2ccc(Nc3ccc(C(=O)N4CC5(CCS5(=O)=O)C4)cc3)cc2N1C1CCOCC1" shows IC50 strictly lower than 500 nM.
## Result 0.0

## Task Determine if "C[C@@H]1C(=O)N(C)c2ccc(Nc3ccc(C(=O)NCC4COC4)cc3)cc2N1C1CCCCCC1" shows IC50 strictly lower than 500 nM.
## Result 0.0

## Task Determine if "C[C@@H]1C(=O)N(C)c2ccc(Nc3ccc(C(=O)N4CCOCC4)cc3)cc2N1Cc1ccccc1" shows IC50 strictly lower than 500 nM.
## Result 1.0

## Task Determine if "C[C@@H]1C(=O)N(C)c2ccc(Nc3ccc(C(=O)N4CC5(CCS5(=O)=O)C4)cc3)cc2N1Cc1ccccc1" shows IC50 strictly lower than 500 nM.
## Result 1.0

## Task Determine if "C[C@@H]1C(=O)N(C)c2ccc(Nc3ccc(C(=O)NC4CC4)cc3)cc2N1Cc1ccccc1" shows IC50 strictly lower than 500 nM.
## Result 1.0

## Task Determine if "C[C@@H]1C(=O)N(C)c2ccc(Nc3ccc(C(=O)NC4CN(C)C4)cc3)cc2N1C1CCOCC1" shows IC50 strictly lower than 500 nM.
## Result 0.0

* * *

system under test: BRD4 Bromo Domain 1 [BRD4(1)] (Homo sapiens)
Construct: N-terminally His6-tagged BRD4(1) (amino acids 67-152)
method: BRD4(1)/acetylated peptide H4 binding assay (TR-FRET)
measurement parameters: inhibition of interaction between His6-tagged BRD4(1) (amino acids 67-152) and acetylated histone H4 peptide
pIC50: −log10 of the molar value.
Use Met when the recorded pIC50 is no lower than 7; use Not met when it is lower.

See these solved cases before continuing.
## Task Could you tell me if the measured pIC50 of C[C@@H]1C(=O)N(C)c2ccc(Nc3ccc(C(=O)NC4CC4)cc3)cc2N1C1CCOCC1 [Example 35] reaches 7 or more?
## Result Not met

## Task Could you tell me if the measured pIC50 of C[C@@H]1C(=O)N(C)c2ccc(Nc3ccc(C(=O)NC4CCN(C)CC4)cc3)cc2N1C1CCCC1 [Example 4] reaches 7 or more?
## Result Met

## Task Could you tell me if the measured pIC50 of C[C@@H]1C(=O)N(C)c2ccc(Nc3ccc(C(=O)NC4CC4)cc3)cc2N1Cc1ccccc1 [Example 10] reaches 7 or more?
## Result Not met

## Task Could you tell me if the measured pIC50 of C[C@@H]1C(=O)N(C)c2ccc(Nc3ccc(C(=O)NCC4COC4)cc3)cc2N1C1CCCCCC1 [Example 25] reaches 7 or more?
## Result Not met

Read the next record carefully.
## Task Could you tell me if the measured pIC50 of COc1ccc(CN2c3cc(Nc4ccc(C(=O)N5CCN(C(C)C)CC5)cc4)ccc3N(C)C(=O)[C@H]2C)cc1 [Example 22] reaches 7 or more?
## Result Not met
